tested on: MOLM14; assay: cell viability relative to vehicle control; higher = less cytotoxic; conditions: 10 µM; SRSF2 genotype: SRSF2 P95H/wt;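 also: after 48 h exposure read by CellTiter-Glo luminescence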
Please go through the items and note down their cell viability.
Kindly answer with a numeric value in %, unit omitted.

Q. Need cell viability of "Nc1ncnc2n[nH]c(Nc3ccc(F)cc3)c12" , thanks.
A. 69.2

Q. Would you mind telling me what cell viability value was observed for CC(C(=O)O)c1ccc2c(c1)CC(=O)c1ccccc1S2 (stereo not given) ?
A. 99.1

Q. Which value of cell viability has been reported for CC(Oc1cc(-c2cnn(C3CCNCC3)c2)cnc1N)c1c(Cl)ccc(F)c1Cl [(S)-crizotinib] in the records?
A. 78.2

Q. // lookup cell viability for "Nc1nc2c(ncn2[C@@H]2O[C@H](CO)[C@@H](O)[C@H]2O)c(=O)[nH]1"
A. 92.5

Q. If you can, please state the reported cell viability value of "O=C(O)c1cccnc1Nc1cccc(C(F)(F)F)c1" .
A. 93.8

* * *

system: MARIMO; experiment: cell viability relative to vehicle control; higher = less cytotoxic; conditions: 10 µM; SRSF2 genotype: SRSF2 wt/wt
Where a name gives a salt, the structure may show the parent alone.
Label true (1) when cell viability is strictly below 20%; otherwise label false (0).

Q. Answer whether the compound CC(CCc1ccccc1)NCC(=O)c1ccc(O)c(C(N)=O)c1 (stereo not given) [Labetalone hydrochloride] has cell viability strictly less than 20%
A. false (0)

Q. Does the reported cell viability of the following compound sit strictly below 20%? O=CC(O)C(O)C(O)C(O)COC1OC(COC2OC(CO)C(O)C(O)C2O)C(O)C(O)C1O (stereo not given)
A. false (0)

Q. Just wondering, is cell viability of "CCn1c2ccccc2c2cc(Nc3ccnc(NCCCN4CCOCC4)n3)ccc21" below 20%?
A. false (0)

Q. Given "COc1ccc2[nH]c(=O)oc2c1" , is recorded cell viability strictly lower than 20%?
A. false (0)

Q. Hello, is cell viability of the following compound strictly smaller than 20%? "CCC[C@H](Nc1nc(-c2ccc(NC(=O)NCC)c(OC)c2)ncc1C)c1cccnc1"
A. true (1)

* * *

For each record, write down the corresponding cell viability.
tested on: OCI-AML2; assay: cell viability relative to vehicle control; higher = less cytotoxic; conditions: 10 µM; SRSF2 genotype: P95H/wt
// note: answer is a bare numeric in %

Q. Consider the compound "CCOC(=O)c1csc(Nc2ccc(Cl)cc2)n1" and give its measured cell viability.
A. 75.6

Q. // lookup cell viability for "COc1cc2ncnc(Nc3ccc(Cl)cc3F)c2cc1OC"
A. 92.9

Q. Look at this compound and give its reported cell viability. "CC(=O)Nc1nc2c(Oc3cc(-c4ccc(C(F)(F)F)cc4)ncn3)cccc2s1"
A. 90.6

Q. What value of measured cell viability is listed for "O=C1NC(=O)/C(=C/c2cccc(C(F)(F)F)c2)S1" ?
A. 111

Q. // returns reported cell viability for input C=C(C)[C@@H]1CC[C@]2(C=O)CC[C@]3(C)[C@H](CC[C@@H]4[C@@]5(C)CC[C@H](O)C(C)(C)[C@@H]5CC[C@]43C)[C@@H]12 [Betulinicaldehyde]
A. 94.5

* * *

tested on: OCI-AML2; assay: cell viability relative to vehicle control; higher = less cytotoxic; details: 10 µM; SRSF2 genotype: wt/wt
I'd appreciate it if you could supply cell viability values for the items below.
Numbers only here, please. The scale is %.

Q. Value lookup for cell viability; key = "CCOC(=O)c1ccc(NC(=O)O[C@H]2[C@H](OC(=O)Nc3ccc4c(c3)OCO4)[C@@H](OC(=O)Nc3ccc4c(c3)OCO4)[C@@H](OC)O[C@@H]2CO)cc1"
A. 103

Q. What cell viability value was documented for this molecule, "CCOc1cn(-c2ccc(F)cc2C)nc1C(=O)Nc1ccc(Oc2ccnc3cc(OC)c(OC)cc23)c(F)c1" ?
A. 52.9

Q. Given the entry Cc1ccsc1C(=CCCN1CCC[C@@H](C(=O)O)C1)c1sccc1C [Tiagabine] , report its measured cell viability.
A. 111

Q. Look at this molecule and give its reported cell viability. O=C(/C=C/c1ccc(O)c(O)c1)O[C@@H]1C[C@](O)(C(=O)O)C[C@@H](O)[C@H]1O [Chlorogenic acid]
A. 102

Q. Record request: cell viability value, item O=C(O)c1ccc2c(c1)C(=O)c1ccccc1C2=O [Anthraquinone-2-carboxylic Acid]
A. 94.9

Q. I'd like to know its cell viability. The molecule in question is CC(C)CN(C[C@@H](O)[C@H](Cc1ccccc1)NC(=O)O[C@H]1CCOC1)S(=O)(=O)c1ccc(N)cc1 [Amprenavir (Agenerase)]
A. 99.4

Q. Requested read-out: cell viability. Entry: OCC1(O)COc2cc(O)ccc2-c2cc(O)c(O)cc2C1 (stereo not given) [Protosappanin B]
A. 99.5

Q. // query cell viability value for entry "COc1cc(-c2cc(-c3ccc(N4CCNCC4)cc3)cnc2C)cc(OC)c1OC"
A. 29.3

Q. Recorded cell viability of "Oc1nc(-c2ccc(C(F)(F)F)cc2)nc2c1CSCC2" , please.
A. 96.7

Q. // query cell viability value for entry Cc1cc(-n2c(=O)[nH]c(=O)n(C)c2=O)ccc1Oc1ccc(SC(F)(F)F)cc1 [Toltrazuril]
A. 104

Q. Given the entry O=C1Cc2c([nH]c3ccc(Br)cc23)-c2ncccc2N1 [1-Azakenpaullone] , report its measured cell viability.
A. 148

Q. Return reported cell viability; argument: C#C[C@]1(O)CC[C@H]2[C@@H]3CCc4cc(O)ccc4[C@H]3CC[C@@]21C [Ethinyl Estradiol]
A. 79.7

Q. Which cell viability is reported for this molecule? NC(=O)[C@@H]1CC[C@@H]2CN1C(=O)N2OS(=O)(=O)O [Avibactam sodium]
A. 101

Q. Entry under review: CNC(=O)c1ccc(N2C(=S)N(c3ccc(C#N)c(C(F)(F)F)c3)C(=O)C2(C)C)cc1F [MDV3100 (Enzalutamide)] . Reported cell viability?
A. 80.3

Q. Would you kindly share the measured cell viability for Nc1ncnc2c1ncn2[C@@H]1O[C@H](CO)[C@@H](O)[C@@H]1O [Vidarabine (Vira-A)] ?
A. 102

Q. Look at this molecule and give its reported cell viability. Cn1c([N+](=O)[O-])cnc1COC(N)=O [Ronidazole]
A. 102

Q. GET /values?readout=cell viability&item= "CN1CCC(NC(=O)c2cc(-c3c(O)cc(O)cc3Oc3ccc([N+](=O)[O-])cc3)on2)CC1"
A. 19.7

Q. I would be grateful if you could share the reported cell viability for CN1CCN(c2ccc3nc(-c4c(N)c5c(F)cccc5[nH]c4=O)[nH]c3c2)CC1 [Dovitinib (TKI-258, CHIR-258)] .
A. 6.09

Q. For the molecule shown here, CC(C)=CCC[C@](C)(O[C@@H]1O[C@H](CO)[C@@H](O)[C@H](O)[C@H]1O)[C@H]1CC[C@]2(C)[C@@H]1[C@H](O)C[C@@H]1[C@@]3(C)CC[C@H](O)C(C)(C)[C@@H]3[C@@H](O[C@@H]3O[C@H](CO)[C@@H](O)[C@H](O)[C@H]3O[C@@H]3O[C@@H](C)[C@H](O)[C@@H](O)[C@H]3O)C[C@]12C [Ginsenoside Re] , give the reported cell viability.
A. 107

Q. Which cell viability is listed for CC(=O)c1ccc(O)cc1O [2,4-Dihydroxyacetophenone] ?
A. 94.8

Q. Suppose we examine the molecule CC(=O)CCc1ccc(OC(C)=O)cc1 [Pherocon (4-(4-Acetoxyphenyl)-2-butanone)] ; what cell viability value has been reported?
A. 116

Q. # cell viability lookup, item "N#CSc1cc(SC#N)c(N)nc1N"
A. 0.95

Q. Quick check: cell viability of C[C@]12CCC(=O)C=C1[C@@H]1C[C@@H]1[C@H]1[C@@H]3[C@@H]4C[C@@H]4[C@@]4(CCC(=O)O4)[C@@]3(C)CC[C@@H]12 [Drospirenone] ?
A. 92.7

Q. Look up cell viability: Nc1ncnc2c1nc(Br)n2[C@@H]1O[C@@H]2COP(=O)(O)O[C@H]2[C@H]1O [8-Bromo-cAMP]
A. 93.2

Q. Return reported cell viability; argument: S=C(NCc1ccc2c(c1)OCO2)N1CCN(c2ncnc3c2oc2ccccc23)CC1 [Amuvatinib (MP-470)]
A. 42.5

Q. Would you kindly share the measured cell viability for CC1(C)O[C@@H]2C[C@H]3[C@@H]4C[C@H](F)C5=CC(=O)C=C[C@]5(C)[C@@]4(F)[C@@H](O)C[C@]3(C)[C@]2(C(=O)CO)O1 [Fluocinolone acetonide (Flucort-N)] ?
A. 109

Q. // lookup cell viability for CCN(CC)c1ccc2c(-c3ccccc3C(=O)O)c3ccc(=[N+](CC)CC)cc-3oc2c1 [Rhodamine B]
A. 49.6

Q. # lookup: cell viability of "O=C(Nc1ccc([N+](=O)[O-])cc1O)Nc1ccccc1Br"
A. 10.4

Q. I have this molecule here, "Cc1ccc(NC(=O)Nc2cc(C(F)(F)F)ccc2F)cc1Nc1ccc2c(c1)NC(=O)/C2=C\c1ccc[nH]1" , and I need its recorded cell viability.
A. 70.1

Q. Quick check: cell viability of COc1c(C)c2c(c(O)c1C/C=C(\C)CCC(=O)OCCN1CCOCC1)C(=O)OC2 [Mycophenolate mofetil (CellCept)] ?
A. 12.2
